# ASSAY_PROTOCOL: Metabolic stability in human liver S9 fractions
# Assay type: in vitro ADME
# CONDITION_SET: 10 μM, 37° C., 15 min incubation, relative to 0 minute incubation
READOUT: % remaining after 15 min (%)
Write down the numeric answer in % and omit the unit.

MOLECULE | % remaining after 15 min, %
CCC1(C)CCC2=C1CCC1C2C(O)C(O)C2CC(NCc3ccccc3)CCC21C.Cl (stereo not shown) | 82

If you can, please state the reported % remaining after 15 min value of CC1(C)CCC2=C1CCC1C2C(O)C(O)C2CC(NCc3ccc(F)c(F)c3)CCC21C.Cl (stereo not shown) .
100

Given the molecule CC1(C)CCC2=C1CCC1C2[C@@H](O)[C@H](O)C2C[C@@H](N)CC[C@]12C (stereo partly shown) , what is its reported % remaining after 15 min?
100

If you can, please state the reported % remaining after 15 min value of COc1ccc(CNC2CCC3(C)C(C2)C(O)C(O)C2C4=C(CCC23)C(C)(C)CC4)cc1OC.Cl (stereo not shown) .
80

###

# ASSAY_PROTOCOL: Pharmacokinetics in the monkey
# Assay type: in vivo
# CONDITION_SET: plasma, po
Reported bioavailability values for a set of compounds

COMPOUND | bioavailability
C=C1CCC2C3C(CC[C@]12C)[C@@]1(C)CC[C@H](N)CC1[C@@H](O)[C@@H]3O (some centres unmarked) | 25 to 30%

Now look at this one.
Give the measured bioavailability of C/C=C1/CCC2C3C(CC[C@]12C)[C@@]1(C)CC[C@H](N)CC1[C@@H](O)[C@@H]3O (some centres unmarked) .
25 to 30%

###

# ASSAY_PROTOCOL: Metabolic stability in human liver S9 fractions
# Assay type: in vitro ADME
# CONDITION_SET: human, s9, 15 min, 10 μM, pH 7
# Experimental: The therapeutic effectiveness of a test compound can be often directly related to its metabolic stability in vivo. The majority of known, marketed drugs are metabolized by a group of enzymes known as P450 enzymes. […] Sample filtrates are analyzed on LCMS, and percent remaining after 15 and 30 minute incubation is calculated relative to the 0 minute incubation. […]
READOUT: % remaining after 15 min (%)
State just the number; it will be interpreted in %.

Example molecules with recorded % remaining after 15 min:
MOLECULE | VALUE_OBSERVED
C=C1CCC2C3C(CC[C@]12C)[C@@]1(C)CCC(N)CC1[C@@H](OC)[C@@H]3OC (stereo partly shown) | 67
CCC1CCC2C3C(CC[C@]12C)[C@@]1(C)CCC(N)CC1[C@@H](O)[C@@H]3O (stereo partly shown) [Compound 96] | 92
C/C=C1/CCC2C3C(CC[C@]12C)[C@@]1(C)CC[C@H](N)CC1[C@@H](O)[C@@H]3O (stereo partly shown) | 92

Continue with the next molecule.
Given the entry CC(F)=C1CCC2C3C(CC[C@]12C)[C@@]1(C)CCC(N)CC1[C@@H](O)[C@@H]3O (stereo partly shown) , report its measured % remaining after 15 min.
104

###

# ASSAY_PROTOCOL: Metabolic stability in human liver S9 fractions
# Assay type: in vitro ADME
# CONDITION_SET: 10 μM, 37° C., 30 min incubation, relative to 0 minute incubation
READOUT: % remaining after 30 min (%)
Report only the number, with the unit % understood.

COMPOUND | % remaining after 30 min (%)
CC1(C)CCC2=C1CCC1C2[C@@H](O)[C@H](O)C2C[C@@H](N)CC[C@]12C (stereo partly shown) | 100
CC1(C)CCC2=C1CCC1C2C(O)C(O)C2CC(NCc3ccc(F)c(F)c3)CCC21C.Cl (stereo not shown) | 26
CCC1(C)CCC2=C1CCC1C2C(O)C(O)C2CC(NCc3ccccc3)CCC21C.Cl (stereo not shown) | 63

Item COc1ccc(CNC2CCC3(C)C(C2)C(O)C(O)C2C4=C(CCC23)C(C)(C)CC4)cc1OC.Cl (stereo not shown) has what recorded % remaining after 30 min?
55

Provenance of the data: patent US6635629B2
